pIC50: −log10 of the molar value.
Compiled literature pIC50, tested on human ACC2 (Homo sapiens (Human)).

Give its pIC50 value. Item: CC(=O)N[C@@H](C)c1ccc(O[C@@H]2CCN(c3ccnc(NCC4(O)CCC4)c3Cl)C2)cc1
7.24

Consider next the compound COc1ccc(F)cc1[C@H](Cn1c(=O)n(C2CCNC2=O)c(=O)c2c(C)c(-c3ncco3)sc21)OC1CCOCC1 (stereo partly drawn) in the same way.
8.00 to 8.70

Lab note: next compound to report on.
Give its pIC50 value. Item: Cc1ccc(-c2ccc(Cl)c(C3=C(O)C4(CCOCC4)NC3=O)c2)cc1F
< 4.70
